Origin of the recorded values: ChEMBL document CHEMBL1147579

# Test system: Aspergillus fumigatus
# assay.protocol: Antifungal activity against Aspergillus fumigatus
# Format: functional
Measured MIC accompanies every entry in the list below.
The figure you give is taken to be in µg/mL; do not add the unit.

Below: 3 molecules and their reported MIC.
| molecule | study.system | result.number |
| --- | --- | --- |
| O=C1C=C(Sc2ccccc2)C(=O)c2ccccc21 | Aspergillus fumigatus | 25 |
| Clc1ccc(COC(Cn2ccnc2)c2ccc(Cl)cc2Cl)c(Cl)c1 (stereo not given) | Aspergillus fumigatus | 12.5 |
| O=C1c2sc3nccn3c2C(=O)c2c(Cl)ccc(O)c21 | Aspergillus fumigatus | 3.1 |

Moving on to the next molecule.
Can you share its MIC? I mean this molecule: O=C1c2ccccc2C(=O)c2c1sc1nccn21
25

---

# Test system: Candida albicans
# assay.protocol: Antifungal activity against Candida albicans
# Assay type: functional
Measured MIC accompanies every entry in the list below.
The figure you give is taken to be in µg/mL; do not add the unit.

Below: 7 compounds and their reported MIC.
| compound | MIC / µg/mL |
| --- | --- |
| O=C1c2sc3nccn3c2C(=O)c2c(Cl)ccc(O)c21 | 25 |
| O=C(O)CCSC1=CC(=O)c2c(O)ccc(O)c2C1=O | 3.12 |
| O=C1C(CO)=C(Sc2ccccc2)C(=O)c2ccccc21 | 25 |
| C[C@@H]1[C@H](O)[C@@H](C)/C=C/C=C/C=C/C=C/C=C/C=C/C=C/[C@H](O[C@@H]2O[C@H](C)[C@@H](O)[C@H](N)[C@@H]2O)C[C@@H]2O[C@](O)(C[C@@H](O)C[C@@H](O)[C@H](O)CC[C@@H](O)C[C@@H](O)CC(=O)O[C@H]1C)C[C@H](O)[C@H]2C(=O)O [AMPHOTERICIN B] | 0.39 |
| O=C1C=C(Sc2ccccc2)C(=O)c2ccccc21 | 12.5 |
| O=C1c2ccccc2C(=O)c2c1sc1nccn21 | 50 |
| O=C1c2sc3nccn3c2C(=O)c2c(O)ccc(O)c21 | 25 |

Moving on to the next compound.
Can you share its MIC? I mean this compound: Clc1ccc(COC(Cn2ccnc2)c2ccc(Cl)cc2Cl)c(Cl)c1 (stereo not drawn) [MICONAZOLE]
25
